Biological target: Nuclear receptor coactivator 3 (Homo sapiens)
Assay: SRC3 coactivator transcriptional activity inhibitors, confirmation, cell-based, luminescence, quadruplicate (AID 588792)
Details: HEK293 GAL4-SRC3 luciferase reporter, at 3.6 µM
Calls of active or inactive are those of the source.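 The calls were made as follows: active = mean inhibition over 43.08%, the solvent-only control mean plus 3 SD; inactive = the rest.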
Respond with a class label; see TRUE = active, FALSE = inactive

- O=C(Nc1c2ccccc2nc2ccccc12)C(Cl)(Cl)Cl: FALSE

Exam item: Short answer needed: outcome of this test for `Cc1cc(C)cc(NC(=O)c2ccc([N+](=O)[O-])o2)c1` ?
Marked response: FALSE

Exam item: Test call for this compound, please: CC12CCC(C(=O)N/N=C/c3ccc(O)cc3O)(OC1=O)C2(C)C (stereo not given)
Marked response: FALSE

Exam item: Any idea what this test logged for `CCN(CC)c1ccc2cc(NC(=O)CCC(=O)O)c(=O)oc2c1` ?
Marked response: TRUE

Exam item: How did this test come out for `COC(=O)c1cn(NC(=O)c2cc([N+](=O)[O-])ccc2F)c(=O)c2ccccc12` ?
Marked response: TRUE

Exam item: I would be grateful if you could indicate the recorded call for O=C(Nc1nc(-c2ccccc2)cs1)C1CCCN(S(=O)(=O)c2ccccc2)C1 (stereo not given) .
Marked response: FALSE

Exam item: Which result was noted for this compound in the test: COc1ccc(N(C(=O)CCl)C(C(=O)NCCc2ccccc2)c2cccs2)cc1Cl (stereo not given)
Marked response: TRUE

Exam item: Field: outcome | Entry: `NC(=O)N=Nc1c2[nH]c3ccccc3nc-2c2ccccc12`
Marked response: FALSE

Exam item: I'd appreciate the recorded outcome for `Cc1ccc(CNC(=O)CCc2ccc(S(=O)(=O)NC3CCCCC3)cc2)cc1` from this test.
Marked response: FALSE

Exam item: Hello, I am checking results. What call was entered for CC(C(=O)N1c2ccccc2Sc2ccccc21)n1nnc(-c2cccs2)n1 (stereo not given) ?
Marked response: FALSE
